Assay: Tmax in CD-1 mouse plasma at 10 mg/kg, po administered as single dose by LC-MS analysis
Format: ADME, organism-based
OBSERVATION TYPE: Tmax (h)

* CS(=O)(=O)Nc1ccc(CNC(=O)c2ccc(C(F)(F)F)cc2)c(Cl)c1 | 1

====

Test: Metabolic stability in Sprague-Dawley rat liver microsomes assessed as half life at 10 uM preincubated with NADPH regenerating system for 5 mins followed by addition of microsome upto 60 mins by HPLC analysis
Type: ADME
OBSERVATION TYPE: half-life at 10 µM (h)

• CS(=O)(=O)Nc1ccc(CNC(=O)c2ccc(S(F)(F)(F)(F)F)cc2)c(Cl)c1 = 2.3
• COC(C)(C)c1ccc(C(=O)NCc2ccc(NS(C)(=O)=O)cc2Cl)cc1 = 0.917
• CC(C)(O)c1ccc(C(=O)NCc2ccc(NS(C)(=O)=O)cc2Cl)cc1 = 20.2
• CS(=O)(=O)Nc1ccc(CNC(=O)c2ccc(C(F)(F)C(F)(F)F)cc2)c(Cl)c1 = 1.6
• COc1ccc(C(=O)NCc2ccc(NS(C)(=O)=O)cc2Cl)cc1 = 4.5
• CC(C)(C)c1ccc(C(=O)NCc2c(F)cc(NS(C)(=O)=O)cc2F)cc1 = 2.42
• CC(C)(C)c1ccc(C(=O)NCc2ccc(NS(=O)(=O)C(F)(F)F)cc2Cl)cc1 = 1.3
• CC(C)(C)c1ccc(C(=O)NCc2ccc(NS(=O)(=O)C3CC3)cc2Cl)cc1 = 0.55
• CN(C)c1ccc(C(=O)NCc2ccc(NS(C)(=O)=O)cc2Cl)cc1 = 0.883
• CS(=O)(=O)Nc1ccc(CNC(=O)c2ccc(OC(F)(F)F)cc2)c(Cl)c1 = 2.47
• CS(=O)(=O)Nc1ccc(CNC(=O)c2ccc(C(F)(F)F)cc2)c(Cl)c1 = 2.43
• CS(=O)(=O)Nc1ccc(CNC(=O)c2ccc(C3(C(F)(F)F)CC3)cc2)c(Cl)c1 = 3.03
• CC(C)(C)c1ccc(C(=O)NCc2ccc(NS(C)(=O)=O)cc2F)cc1 = 0.483
• CS(=O)(=O)Nc1ccc(CNC(=O)c2ccc(N3CCCCC3)cc2)c(Cl)c1 = 1.12
• CS(=O)(=O)Nc1ccc(CNC(=O)c2ccc(N3CCC3)cc2)c(Cl)c1 = 2.62
• CS(=O)(=O)Nc1ccc(CNC(=O)c2ccc(C34CC(C3)C4)cc2)c(Cl)c1 = 1.35
• CS(=O)(=O)Nc1ccc(CNC(=O)c2ccc(CC(F)(F)F)cc2)c(Cl)c1 = 1.03
• CC(C)(C)c1ccc(C(=O)NCc2c(Cl)cc(NS(C)(=O)=O)cc2Cl)cc1 = 1.37
• CS(=O)(=O)Nc1ccc(CNC(=O)c2ccc(C3(O)COC3)cc2)c(Cl)c1 = 4.23
• CC(C)(C)c1ccc(C(=O)NCc2ccc(NS(C)(=O)=O)cc2Cl)cc1 = 1.08
• CC(F)(F)c1ccc(C(=O)NCc2ccc(NS(C)(=O)=O)cc2Cl)cc1 = 2.35
• CS(=O)(=O)Nc1ccc(CNC(=O)c2ccc(N3CCCC3)cc2)c(Cl)c1 = 1.28
• CC(C)Oc1ccc(C(=O)NCc2ccc(NS(C)(=O)=O)cc2Cl)cc1 = 1.85
• CCS(=O)(=O)Nc1ccc(CNC(=O)c2ccc(C(C)(C)C)cc2)c(Cl)c1 = 0.783
• CS(=O)(=O)Nc1ccc(CNC(=O)c2ccc(N3CCOCC3)cc2)c(Cl)c1 = 5.72
• CCOc1ccc(C(=O)NCc2ccc(NS(C)(=O)=O)cc2Cl)cc1 = 1.8
• CC(C)S(=O)(=O)Nc1ccc(CNC(=O)c2ccc(C(C)(C)C)cc2)c(Cl)c1 = 0.983
